Assignment: determine reported intrinsic clearance, rat liver microsomes for the given compounds.
One number for each entry, in mL/min/kg.

Recorded intrinsic clearance, rat liver microsomes, per entry:
| compound | endpoint-unit | measured-value |
| --- | --- | --- |
| N#CCCCN1CCC(c2c[nH]c3ccccc23)CC1 | mL/min/kg | 1730 |
| Cc1cc(Br)ccc1CN(C)C(=O)CO | mL/min/kg | 28.6 |
| CC(C)(C)c1csc(CCNC(=O)N2CCSCC2)n1 | mL/min/kg | 956 |
| CCn1c(-c2nonc2N)nc2cnc(Oc3cccc(NC(=O)c4ccc(OCCN5CCOCC5)cc4)c3)cc21 | mL/min/kg | 232 |
| CCn1c(C)nc2cc(NC(=O)c3ccc(=O)n(CC(=O)N4CCCCC4)c3)ccc21 | mL/min/kg | 54.8 |
| Cc1cc(OCCCS(C)(=O)=O)cc(C)c1-c1cccc(COc2ccc3c(c2)OC[C@@H]3CC(=O)O)c1 | mL/min/kg | 28.3 |
| CCc1nnc(Nc2cc(C)nc(C3CN(C(=O)C(C)C)CCO3)c2)s1 (stereo not drawn) | mL/min/kg | 131 |
| CNC(=O)c1ccc(N(C)C2CCC2)nn1 | mL/min/kg | 40.3 |

Give intrinsic clearance, rat liver microsomes for all compounds that follow.
1. COc1cccc(N(C)CCC(=O)N2CCC(c3ccc(-c4ccc(N)nc4)cn3)CC2)c1
2. Cc1ccsc1-c1nsc(NC(=O)CN(C)C)n1
3. O=C(NCc1cccc2c1OCCCO2)c1cscn1
4. Cc1cc(C)cc(Oc2cc(C#N)ccn2)c1

1. 1770
2. 548
3. 82.9
4. 214

Give intrinsic clearance, rat liver microsomes for all compounds that follow.
1. CC(C)Oc1cccc(C(C)NC(=O)c2ccnc(-n3cncn3)c2)c1 (stereo not drawn)
2. Cc1ccccc1C(=O)N1CCC[C@@H]1Cn1nnn(-c2cccs2)c1=O
3. O=C(CC[C@@H]1CCCN2CCCC[C@H]12)NCc1cnc2c(c1)CCC2

1. 258
2. 929
3. 286
